Consider the following compounds; for each one, report its differential viability (reversal).
Test: reversal of MRP1-mediated doxorubicin resistance, pilot screen, H69AR cells, doxorubicin co-treatment (AID 601)
Conditions: H69AR cells + 2 uM doxorubicin, CellTiter-Glo, 72 h; at 10 µM; active compounds read high
Write the value in % as a bare number.

State its differential viability (reversal): `Cn1c(-c2ccccc2)cnc1SCc1nc2ccccc2c(=O)[nH]1`
18.1

State its differential viability (reversal): Cc1ccc2cc(C(c3nnnn3C3CCCC3)N3CCN(c4ccc(F)cc4)CC3)c(=O)[nH]c2c1 (stereo unspecified)
8.08

State its differential viability (reversal): Cc1ccc2[nH]c(=O)c(CN(CCc3ccccc3)Cc3nnnn3CC3CCCO3)cc2c1 (stereo unspecified)
0.205

State its differential viability (reversal): O=C(C1CCCCC1)N1CC(=O)N2CCc3ccccc3C2C1 (stereo unspecified)
-3.46

State its differential viability (reversal): CCSC1=C(C#N)C(c2cccc(OC)c2)CC(=O)N1 (stereo unspecified)
8.71

State its differential viability (reversal): CCOC(=O)CSC1=C(C#N)C(c2ccc(C)cc2)C(C(=O)OC)C(=O)N1 (stereo unspecified)
1.55

State its differential viability (reversal): `CCOc1ccc(-c2nc(C#N)c(N3CCN(C)CC3)o2)cc1`
0.87

State its differential viability (reversal): COC(=O)C1=C(C)NC(C)=C(C(=O)OC)C1C(=O)OC1CCCCC1=O (stereo unspecified)
3.25

State its differential viability (reversal): `Fc1ccccc1Cn1nnc2c(-n3ccnc3)ncnc21`
15.2

State its differential viability (reversal): `c1ccc(OCCOc2ncnc3sccc23)cc1`
7

State its differential viability (reversal): `O=C(NCC(F)(F)F)Nc1cccnc1`
6

src = PubChem BioAssay
